Reported pKd values for a set of binders
- MEASURED_TARGET: T1, EsCas13d, nuclease-dead (Eubacterium siraeum, UniProt B0MS50, R295A;H300A;R849A;H854A)
- T1 sequence: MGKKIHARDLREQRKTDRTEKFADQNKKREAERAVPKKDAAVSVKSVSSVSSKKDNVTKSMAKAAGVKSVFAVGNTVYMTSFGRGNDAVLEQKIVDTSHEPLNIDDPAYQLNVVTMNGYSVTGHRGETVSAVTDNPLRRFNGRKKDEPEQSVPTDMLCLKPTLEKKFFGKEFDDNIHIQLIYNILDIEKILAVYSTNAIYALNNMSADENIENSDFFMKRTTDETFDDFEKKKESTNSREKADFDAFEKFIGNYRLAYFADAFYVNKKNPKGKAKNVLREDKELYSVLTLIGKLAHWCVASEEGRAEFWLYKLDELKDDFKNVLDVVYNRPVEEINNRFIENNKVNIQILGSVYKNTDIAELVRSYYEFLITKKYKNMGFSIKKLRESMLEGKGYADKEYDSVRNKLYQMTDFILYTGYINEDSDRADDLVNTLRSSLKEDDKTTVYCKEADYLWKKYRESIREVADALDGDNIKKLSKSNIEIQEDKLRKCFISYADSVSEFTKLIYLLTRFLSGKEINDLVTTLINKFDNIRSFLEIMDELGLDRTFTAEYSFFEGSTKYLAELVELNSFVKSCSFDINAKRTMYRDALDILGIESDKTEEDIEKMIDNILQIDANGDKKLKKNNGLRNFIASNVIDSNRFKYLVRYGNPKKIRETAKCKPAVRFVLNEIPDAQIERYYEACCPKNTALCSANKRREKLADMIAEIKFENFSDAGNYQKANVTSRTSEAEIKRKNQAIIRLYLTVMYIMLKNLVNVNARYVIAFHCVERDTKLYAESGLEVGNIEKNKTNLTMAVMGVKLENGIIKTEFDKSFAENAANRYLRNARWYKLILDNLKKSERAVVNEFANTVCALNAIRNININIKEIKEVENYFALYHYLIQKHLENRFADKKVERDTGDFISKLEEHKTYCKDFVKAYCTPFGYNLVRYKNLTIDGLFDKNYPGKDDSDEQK
- RUN_DESCRIPTION: crRNA (strand 1, pre-loaded); Mg2+; 40 mM Tris-HCl pH 7.5, 150 mM NaCl, 6 mM MgCl2, 1 mM DTT, 0.1% Tween-20, 0.2 mg/ml BSA; 25 C; 10 min per concentration, then washed
- CONDITION_NOTES: tags: His6-TwinStrep-SUMO cleaved; N-terminal SNAP kept (SNAP-Surface 488); label: 3' end held by stalled T7 RNA polymerase
Interpret pKd as the negative base-10 log of the concentration measured in mol/L.

Example entries and their recorded answers appear below.
[
  {
    "BINDER": "target 1 U10G (mixed) RNA 1: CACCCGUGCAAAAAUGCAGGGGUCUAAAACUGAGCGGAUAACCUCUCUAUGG RNA 2: GGGAAUGGAUCCACAUCUACGAAUUCGUACCAUAGAGAGGUGAUCCGCUCACCGAGAUCGGAAGAGCACACGU",
    "pKd": 7.70
  },
  {
    "BINDER": "target 3 U2G,U20C (mixed) RNA 1: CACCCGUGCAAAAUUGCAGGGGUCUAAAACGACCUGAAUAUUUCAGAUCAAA RNA 2: GGGAAUGGAUCCACAUCUACGAAUUCGUUUUCGAUCUGAAAUAUUCAGGGCUGCAGAUCGGAAGAGCACACGU",
    "pKd": 7.30
  },
  {
    "BINDER": "target 1 MT 5'PFS ACA 3'PFS UUC (mixed) RNA 1: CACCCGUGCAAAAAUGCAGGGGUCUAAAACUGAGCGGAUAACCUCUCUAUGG RNA 2: GGGAAUGGAUCCACAUCUACGAAUUCACACCAUAGAGAGGUUAUCCGCUCAUUCAGAUCGGAAGAGCACACGU",
    "pKd": 7.90
  }
]

Inquiry: Query: pKd; subject: target 1 G5A,A9U (mixed) RNA 1: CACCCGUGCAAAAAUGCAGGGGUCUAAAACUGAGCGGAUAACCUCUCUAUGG RNA 2: GGGAAUGGAUCCACAUCUACGAAUUCGUACCAUAGAGAGGUUUUCCACUCACCGAGAUCGGAAGAGCACACGU
Reply text: 7.53
